Biological target: T1, MEC-8 RRM1 (Caenorhabditis elegans, UniProt G5ECJ4 28-123, C54A;C102A)
T1 sequence: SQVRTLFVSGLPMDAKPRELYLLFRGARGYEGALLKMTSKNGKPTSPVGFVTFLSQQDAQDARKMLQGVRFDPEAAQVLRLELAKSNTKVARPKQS
Assay: ITC
Documented Kd across a set of binders
Lab book: enter the figure in nM, no units written.

INSERT INTO assay_data (binder, value) VALUES
  ('AGCACAUUUU (ssRNA) [6-mer + 4U]', 1750),
  ('AAUCCAUUGCACUCCGGAUUU (structured_RNA) [U1A stem-loop]', 240),
  ('AGCACAUUUUUUUUAGCAUA (ssRNA) [10-nt spacer (WT/C19U)]', 450),
  ('ACCACAUUUUUUUUACCACA (ssRNA) [10-nt spacer (G2C/G16C)]', 1560),
  ('AGCACAUUUUAGCACA (ssRNA) [6-nt spacer]', 330),
  ('AGCACAUUUUUUUUAGCACA (ssRNA) [10-nt spacer]', 150);

Prompt: Give the reported value of Kd for this record: AGCACAUUUUUUUUUUAGCACA (ssRNA) [12-nt spacer]
Response: 80

Prompt: Give the reported value of Kd for this record: AUCACAUUUUUUUUAUCACA (ssRNA) [10-nt spacer (G2U/G16U)]
Response: 1290

Prompt: Give the reported value of Kd for this record: AGCACAUUUUUUUUAUCACA (ssRNA) [10-nt spacer (WT/G16U)]
Response: 260

Prompt: Give the reported value of Kd for this record: AUCACA (ssRNA) [6-mer (G2U)]
Response: 20400

Prompt: Give the reported value of Kd for this record: AGCACAUUUUUUAGCACA (ssRNA) [8-nt spacer]
Response: 180

Prompt: Give the reported value of Kd for this record: AGCACAUUUUUUUUUUUUAGCACA (ssRNA) [14-nt spacer]
Response: 110

Prompt: Give the reported value of Kd for this record: AGCACAUUAGCACA (ssRNA) [4-nt spacer]
Response: 380

Origin of the recorded values: paper PMC5311487
